# Experiment: Toxicity to rat, administration of corn oil dilutions
# Experimental conditions: in vivo, male rats, dilution in corn oil, 10 ml/kg, mortality after 7 days
Reported property: LD50 at 7 days (mg/kg)
Field format: number, assumed mg/kg, no unit text.

Return value of LD50 at 7 days for input Cc1c(F)c(F)c(COC(=O)[C@@H]2[C@@H](C=C(Cl)Cl)C2(C)C)c(F)c1F , no commentary.
300
